- tested.target: T1, Zmax1/LRP5 ligand binding domain bait LBD4 (Arg1070-Pro1376) (human, UniProt O75197 1070-1376)
- T1 construct: also called pDBleuLBD4; not shown: not described
- T1 sequence: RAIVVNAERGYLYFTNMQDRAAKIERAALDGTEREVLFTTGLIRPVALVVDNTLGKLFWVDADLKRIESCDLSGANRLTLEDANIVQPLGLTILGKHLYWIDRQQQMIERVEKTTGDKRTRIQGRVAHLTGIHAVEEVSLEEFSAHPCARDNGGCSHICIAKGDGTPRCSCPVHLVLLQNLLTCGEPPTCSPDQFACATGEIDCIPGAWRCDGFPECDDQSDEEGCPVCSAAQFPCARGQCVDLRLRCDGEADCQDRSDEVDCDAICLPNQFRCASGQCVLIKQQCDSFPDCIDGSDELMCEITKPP
- experimental.details: Y2H, growth on selective media

binder	binding result
Dkk-1 clone D4 (F1/R2: Asn34-Cys245) (ligand, not shown: large carriers) NSVLNSNAIKNLPPPLGGAAGHPGSAVSAAPGILYPGGNKYQTIDNYQPYPCAEDEECGTDEYCASPTRGGDAGVQICLACRKRRKRCMRHAMCCPGNYCKNGICVSSDQNHFRGEIEETITESFGNDHSTLDGYSRRTTLSSKMYHTKGQEGSVCLRSSDCASGLCCARHFWSKICKPVLKEGQVCTKHRRKGSHGLEIFQRCYCGEGLSC	binds
Dkk-1 clone D8 (F2/R2: Cys97-Cys245) (ligand, not shown: large carriers) CASPTRGGDAGVQICLACRKRRKRCMRHAMCCPGNYCKNGICVSSDQNHFRGEIEETITESFGNDHSTLDGYSRRTTLSSKMYHTKGQEGSVCLRSSDCASGLCCARHFWSKICKPVLKEGQVCTKHRRKGSHGLEIFQRCYCGEGLSC	binds
Dkk-1 clone D3 (F1/R1: Asn34-Lys182) (ligand, not shown: large carriers) NSVLNSNAIKNLPPPLGGAAGHPGSAVSAAPGILYPGGNKYQTIDNYQPYPCAEDEECGTDEYCASPTRGGDAGVQICLACRKRRKRCMRHAMCCPGNYCKNGICVSSDQNHFRGEIEETITESFGNDHSTLDGYSRRTTLSSKMYHTK	no binding
Dkk-1 clone D11 (F3/R2: Val139-Cys245) (ligand, not shown: large carriers) VSSDQNHFRGEIEETITESFGNDHSTLDGYSRRTTLSSKMYHTKGQEGSVCLRSSDCASGLCCARHFWSKICKPVLKEGQVCTKHRRKGSHGLEIFQRCYCGEGLSC	no binding
